assay: Percentage of apoptotic cells in human peripheral blood mononuclear cells after 72 hour incubation at the concentration 30 uM; assay type: functional; details: at 30 µM
The entries below are paired with their reported Apoptotic cells.

{"COMPOUND": "Nc1nc(Cl)cc2c1ncn2C1O[C@H](CO)[C@@H](O)[C@H]1O (stereo not given in full)", "UNIT_ANNOTATION": "%", "Apoptotic cells": 9.6}
{"COMPOUND": "Nc1nc(I)nc2c1ncn2[C@@H]1O[C@H](CO)[C@@H](O)[C@H]1O", "UNIT_ANNOTATION": "%", "Apoptotic cells": 12}
{"COMPOUND": "Nc1nc(Cl)cc2c1ncn2[C@H]1C[C@H](O)[C@@H](CO)O1", "UNIT_ANNOTATION": "%", "Apoptotic cells": 34.5}
{"COMPOUND": "Nc1nc(Cl)nc2c1ncn2C1CCC(CO)O1 (stereo not given)", "UNIT_ANNOTATION": "%", "Apoptotic cells": 9.6}
{"COMPOUND": "Nc1nc(Cl)nc2c1ncn2C1OC(CO)CC1O (stereo not given)", "UNIT_ANNOTATION": "%", "Apoptotic cells": 11.4}
{"COMPOUND": "Nc1nc(Cl)nc2c1ncn2[C@H]1C[C@H](O)[C@@H](CO)O1", "UNIT_ANNOTATION": "%", "Apoptotic cells": 93.8}
{"COMPOUND": "OC[C@H]1O[C@@H](n2cnc3c(NC4CCCCCC4)ccnc32)C[C@@H]1O", "UNIT_ANNOTATION": "%", "Apoptotic cells": 8.9}
{"COMPOUND": "Nc1ccnc2c1ncn2[C@@H]1O[C@H](CO)[C@@H](O)[C@H]1O", "UNIT_ANNOTATION": "%", "Apoptotic cells": 12.8}
{"COMPOUND": "OC[C@H]1O[C@@H](n2cnc3c(NC4CC4)nc(Cl)nc32)C[C@@H]1O", "UNIT_ANNOTATION": "%", "Apoptotic cells": 17.9}
{"COMPOUND": "OC[C@H]1O[C@@H](n2cnc3c(NC4CCCCCC4)nc(Cl)nc32)C[C@@H]1O", "UNIT_ANNOTATION": "%", "Apoptotic cells": 12.3}
{"COMPOUND": "OC[C@H]1O[C@@H](n2cnc3c(NC4CCCC4)nc(Cl)cc32)C[C@@H]1O", "UNIT_ANNOTATION": "%", "Apoptotic cells": 14.9}
{"COMPOUND": "OC[C@H]1O[C@@H](n2cnc3c(NC4CC4)cc(Cl)nc32)C[C@@H]1O", "UNIT_ANNOTATION": "%", "Apoptotic cells": 10.8}
{"COMPOUND": "OC[C@H]1O[C@@H](n2cnc3c(NC4CCCC4)nc(Cl)nc32)C[C@@H]1O", "UNIT_ANNOTATION": "%", "Apoptotic cells": 18.8}
{"COMPOUND": "OC[C@H]1O[C@@H](n2cnc3c(NC4CCCC4)cc(Cl)nc32)C[C@@H]1O", "UNIT_ANNOTATION": "%", "Apoptotic cells": 12}
{"COMPOUND": "Nc1nc(Cl)nc2c1ncn2[C@@H]1O[C@H](CO)[C@@H](O)[C@H]1O", "UNIT_ANNOTATION": "%", "Apoptotic cells": 82.7}

---

assay: Percentage of apoptotic cells in human peripheral blood mononuclear cells after 72 hour incubation at the concentration 30 uM; assay type: functional; conditions: at 30 µM
The entries below are paired with their reported Apoptotic cells.

{"MOLECULE": "OC[C@H]1O[C@@H](n2cnc3c(NC4CC4)ncnc32)C[C@@H]1O", "Apoptotic cells, %": 9.5}
{"MOLECULE": "OC[C@H]1O[C@@H](n2cnc3c(NC4CCCCCC4)cc(Cl)nc32)C[C@@H]1O", "Apoptotic cells, %": 9.6}
{"MOLECULE": "CNC(=O)C1OC(n2cnc3c(N)nc(Cl)nc32)CC1O (stereo not given)", "Apoptotic cells, %": 10.4}
{"MOLECULE": "Nc1cc(Cl)nc2c1ncn2[C@H]1C[C@H](O)[C@@H](CO)O1", "Apoptotic cells, %": 9.8}
{"MOLECULE": "OC[C@H]1O[C@@H](n2cnc3c(NC4CCCC4)nc(Cl)nc32)[C@H](O)[C@@H]1O", "Apoptotic cells, %": 9.6}
{"MOLECULE": "Nc1cc(Cl)nc2c1ncn2[C@@H]1O[C@H](CO)[C@@H](O)[C@H]1O", "Apoptotic cells, %": 11.1}
{"MOLECULE": "Nc1nccc2c1ncn2[C@@H]1O[C@H](CO)[C@@H](O)[C@H]1O", "Apoptotic cells, %": 11.9}
{"MOLECULE": "OC[C@H]1O[C@@H](n2cnc3c(NC4CCCCCC4)ncnc32)C[C@@H]1O", "Apoptotic cells, %": 9.8}
{"MOLECULE": "OC[C@H]1O[C@@H](n2cnc3c(NC4CCCC4)ccnc32)C[C@@H]1O", "Apoptotic cells, %": 9.5}
{"MOLECULE": "OC[C@H]1O[C@@H](n2cnc3c(NC4CCCC4)ncnc32)C[C@@H]1O", "Apoptotic cells, %": 7.1}
